target: KRAS protein subtype WT (Homo sapiens, UniProt P01116)
Sequence (P01116 1-188 isoform P01116-2): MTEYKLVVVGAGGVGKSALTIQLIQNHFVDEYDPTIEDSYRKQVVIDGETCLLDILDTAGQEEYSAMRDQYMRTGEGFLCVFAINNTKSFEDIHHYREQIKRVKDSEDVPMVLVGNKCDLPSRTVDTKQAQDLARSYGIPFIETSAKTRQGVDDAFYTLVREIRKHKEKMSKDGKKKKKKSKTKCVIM
pKd: −log10 of the molar value.
experimental endpoint: pKd

INSERT INTO assay_data (compound_smiles, meas_value) VALUES
  ('CCc1c(F)ccc2cc(O)cc(-c3nc4c5c(nc(OC[C@@]67CCCN6C[C@H](F)C7)nc5c3F)N3C[C@H]5CC[C@H](N5)[C@H]3CO4)c12', 8.81);

----------
target: KRAS protein subtype G12D (Homo sapiens, UniProt P01116, G12D); experiment: Affinity for KRAS protein subtype G12D by SPR method (Biacore 8K); conditions: biotinylated Avi-KRAS-G12D, single-cycle kinetic mode, 1:1 model
Sequence (P01116 1-188 isoform P01116-2 G12D): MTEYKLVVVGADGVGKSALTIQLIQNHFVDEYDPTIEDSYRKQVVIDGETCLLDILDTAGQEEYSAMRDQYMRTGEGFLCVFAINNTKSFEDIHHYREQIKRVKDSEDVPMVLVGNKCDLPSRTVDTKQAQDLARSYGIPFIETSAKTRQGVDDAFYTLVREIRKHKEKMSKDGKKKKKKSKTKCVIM
pKd: −log10 of the molar value.
experimental endpoint: pKd

INSERT INTO results (molecule, experimental_endpoint, meas_value) VALUES
  ('CCc1c(F)ccc2cc(O)cc(-c3nc4c5c(nc(OC[C@@]67CCCN6C[C@H](F)C7)nc5c3F)N3C[C@H]5CC[C@H](N5)[C@H]3CO4)c12 [Compound represented by formula I]', 'pKd', 10.52);
